test: Transformed response potentiometric titration of cocaine (ligand) with titrants; assay type: binding; details: Post-EP method; n=6 electrodes
observable: Kd
Put down the number, then write its unit next to it.

Given item CBA: Cocaine Binding Aptamer, sequence SEQ ID NO: 1, 43 bases (DNA ATCTCGGGACGACAGGATTTTCCTCAATGAAGTGGGTCGTCCC; DNA, backbone not given here) , the value recorded as its Kd is 1100 nM

Where these numbers come from: patent US11614423B2
